B1: CASP6 (parent)
chain: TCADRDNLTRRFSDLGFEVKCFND

variants of: B1; assay: protein stability index of a GFP-peptide fusion (GPS, HEK-293T) (PSI 1-6); higher = more stable; details: c terminus: a fixed tail appended;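 further: lentivirally expressed fusions sorted by FACS into six bins by GFP to DsRed ratio, PSI derived from sequencing read proportions per bin multiplied by bin number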
Reported protein stability index is given for each of the following variants.

VARIANT_CODE | protein stability index
K20R | 3.32
V19S | 3.8
L15G | 3.69
C21G | 3.5
F12H | 4.07
T9D | 3.51
G16T | 3.04
N23F | 2.51
D24Q | 3.24
E18P | 3.49
A3I | 3.21
L8D | 4.06
K20N | 3.75
D14G | 3.46
R5I | 2.71
V19E | 4.31
N23S | 3.66
R10Q | 3.33
A3L | 3.14
V19D | 4.93
C2T | 3.54
T9N | 2.83
D6V | 2.38
R11P | 3.68
S13P | 2.86
D14C | 2.91
T1V | 2.92
E18R | 3.14
N7H | 3.63
C21L | 2.85
F22Q | 4.15
R5S | 3.8
R10P | 3.39
L8V | 3.37
D24R | 2.67
L15N | 3.94
L15I | 2.91
F17K | 3.37
R10L | 3.07
R11C | 2.66
T1W | 2.32
S13D | 3.83
K20W | 2.56
F22A | 4.54
D6A | 2.76
L8T | 3.49
R5D | 4.21
K20A | 3.76
F17I | 3.54
F17A | 3.7
L15R | 3.27
D24S | 2.57
D4N | 3.17
C21H | 3.72
G16E | 3.83
N23K | 3.41
D6F | 2.51
D6T | 3.2
D14W | 1.97
D24F | 2.11
L8F | 2.45
S13Y | 2.7
V19Q | 3.85
G16S | 3.26
C21A | 3.53
F12R | 3.35
D4M | 2.08
N7G | 3.71
G16H | 2.84
D14F | 2.07

Just for reference, the supplement of paper PMC10567573 is where these values come from.
